Experiment: in vitro
Conditions: human, hela cells, % viability
Kindly state viability at 28.5 h, 10 µM for each of the entries shown.
Return type: number; implicit unit %.

The compound listed as CCN1CCN(C(=O)C2CC=CCC2C(=O)O)CC1 (stereo not drawn) shows viability at 28.5 h, 10 µM equal to 91.6

The compound listed as CCC(=O)N1CCC2(CC1)Nc1ccccc1-n1cccc12 shows viability at 28.5 h, 10 µM equal to 108

The compound listed as CC(=O)c1cn(CCC(=O)NC2CCCOC2)c2ccccc12 (stereo not drawn) shows viability at 28.5 h, 10 µM equal to 114

The compound listed as Nc1ncnc2[nH]nc(Nc3ccc(F)cc3)c12 shows viability at 28.5 h, 10 µM equal to 79

The compound listed as COc1ccc(-c2nnc(SCC(=O)Nc3cc(C(C)(C)C)no3)n2C2CCCCC2)cc1OC shows viability at 28.5 h, 10 µM equal to 105

The compound listed as N=C(NC(=S)Nc1ccccc1)N1CCN(Cc2ccccc2)CC1 shows viability at 28.5 h, 10 µM equal to 106

The compound listed as Cc1cc(N2CCOC(c3cccs3)C2)ccn1 (stereo not drawn) shows viability at 28.5 h, 10 µM equal to 96.2

The compound listed as Fc1ccccc1CSc1nnc(-c2cnccn2)n1Cc1ccco1 shows viability at 28.5 h, 10 µM equal to 96.4

The compound listed as CC(C)(C)c1ccc(S(=O)(=O)N2CCCCC2CCO)cc1[N+](=O)[O-] (stereo not drawn) shows viability at 28.5 h, 10 µM equal to 93.9

The compound listed as Cc1nnc(N/N=C\c2c(Cl)cccc2Cl)[nH]c1=O shows viability at 28.5 h, 10 µM equal to 110

The compound listed as O=[N+]([O-])c1cccc(C(Nc2ccccn2)n2cnc3ccccc32)c1 (stereo not drawn) shows viability at 28.5 h, 10 µM equal to 87.6

The compound listed as O=C(O)c1ccc(CNC2CC(=O)N(c3ccc(F)cc3)C2=O)cc1 (stereo not drawn) shows viability at 28.5 h, 10 µM equal to 95.3

The compound listed as Oc1cccc(Sc2cncc(N3CCCC3)n2)c1 shows viability at 28.5 h, 10 µM equal to 106

The compound listed as COc1ccc(Nc2cc(-c3cc4ccccc4o3)ncn2)c(C)c1 shows viability at 28.5 h, 10 µM equal to 87.7

The compound listed as O=C1N[C@]2(CCc3ccccc31)CN(CC1CC=CCC1)C[C@H]2CO (stereo partly drawn) shows viability at 28.5 h, 10 µM equal to 96

The compound listed as c1ccc(CCNc2nccnc2-c2ccoc2)nc1 shows viability at 28.5 h, 10 µM equal to 86.1

The compound listed as Cc1nc2cc(/N=C/c3c[nH]c4ccccc34)ccc2n1C shows viability at 28.5 h, 10 µM equal to 88.8

The compound listed as COC(=O)CCC(=O)Nc1cccc([N+](=O)[O-])c1 shows viability at 28.5 h, 10 µM equal to 95.4

The compound listed as Cc1noc(-c2cn(C)nc2C2CCCCN2C(=O)C2CC2)c1C (stereo not drawn) shows viability at 28.5 h, 10 µM equal to 96.9

The compound listed as COCCN1C(=O)C2(CC(=O)N(CCCCC(C)C)C2=O)c2cc(OC)ccc21 (stereo not drawn) shows viability at 28.5 h, 10 µM equal to 109

The compound listed as O=C1c2ccccc2C(Nc2cccnc2)N1c1ccccn1 (stereo not drawn) shows viability at 28.5 h, 10 µM equal to 80.5

The compound listed as Cc1ccc2c(c1)C(NC(=O)C1CCN(S(C)(=O)=O)CC1)CC(C)(C)O2 (stereo not drawn) shows viability at 28.5 h, 10 µM equal to 109

The compound listed as Cc1nc2n(CCN3CCCCC3)c3ccccc3n2c1C(=O)c1cccs1 [CBK278242B] shows viability at 28.5 h, 10 µM equal to 88.6

The compound listed as CN(C)C(=O)N1CCC2(CC1)CC(=O)N(Cc1ccc(S(C)(=O)=O)cc1)C2=O shows viability at 28.5 h, 10 µM equal to 104

The compound listed as CC(C)n1nnnc1SCCC(=O)N1CCN(c2ccc(F)cc2)CC1 shows viability at 28.5 h, 10 µM equal to 95.5

The compound listed as CCNS(=O)(=O)C1CCN(c2cc(C#N)ccc2C(F)(F)F)C1 (stereo not drawn) shows viability at 28.5 h, 10 µM equal to 96.2

The compound listed as N#Cc1ccc(Cn2cc(C(=O)C(N)=O)c3ccccc32)cc1 shows viability at 28.5 h, 10 µM equal to 84.2

The compound listed as Cc1cc2c(cc1C)C(O)CC1(CCN(C(=O)c3ccco3)CC1)O2 (stereo not drawn) shows viability at 28.5 h, 10 µM equal to 84

The compound listed as COc1ccc(CCN2C(=O)CC(Nc3ccc(N4CCOCC4)cc3)C2=O)cc1OC (stereo not drawn) shows viability at 28.5 h, 10 µM equal to 97.7

The compound listed as CCCc1n[nH]c(=S)n1CC(=O)Nc1cc(NC(=O)C2CC2)ccc1C shows viability at 28.5 h, 10 µM equal to 106

The compound listed as Nc1ncc(-c2cccc3ccccc23)nc1Nc1ccc2[nH]ccc2c1 shows viability at 28.5 h, 10 µM equal to 90.9

The compound listed as O=C1NC(=O)c2cc(S(=O)(=O)NCCCO)cc3cccc1c23 shows viability at 28.5 h, 10 µM equal to 110

The compound listed as CCOC(=O)CN/C(=N/O)c1c(Cl)cccc1Cl shows viability at 28.5 h, 10 µM equal to 99.6

The compound listed as CCOC(=O)c1cnn(C2CCCN(Cc3cnnn3C)C2)c1 (stereo not drawn) shows viability at 28.5 h, 10 µM equal to 98.5

The compound listed as Cc1noc(C)c1C(=O)N1CCCCCC1c1nn(C)cc1Cl (stereo not drawn) shows viability at 28.5 h, 10 µM equal to 101

The compound listed as Cc1cc(C(=O)NCCO)ccc1Br shows viability at 28.5 h, 10 µM equal to 92

The compound listed as CCN1CCN(C(=O)CN(Cc2ccccc2)S(=O)(=O)c2c(C)cc(C)cc2C)CC1 shows viability at 28.5 h, 10 µM equal to 98.1

The compound listed as O=C(c1ccc(F)cc1)C1CCN(CCC(c2ccccc2)c2ccccc2)CC1 shows viability at 28.5 h, 10 µM equal to 92.3

The compound listed as O=C(CN1CCN(c2ccc(C(F)(F)F)cn2)CC1)c1ccccc1 shows viability at 28.5 h, 10 µM equal to 111

###

Assay: in vitro
Conditions: human, hela cells, % viability
Kindly state viability at 28.5 h, 10 µM for each of the entries shown.
Return type: number; implicit unit %.

The compound listed as Cc1cc(C)n(CCNC(=O)N2CCC(Oc3cccnc3)CC2)n1 shows viability at 28.5 h, 10 µM equal to 109

The compound listed as CN(c1ncc(-c2cc3ccccc3o2)cc1C(=O)Nc1ccc2c(c1)OCO2)S(C)(=O)=O shows viability at 28.5 h, 10 µM equal to 101

The compound listed as COc1ccc([C@@]23CCCN(C(=O)Nc4ccc(SC(F)(F)F)cc4)C[C@@H]2N(C)CC3)cc1OC [CBK056681T] shows viability at 28.5 h, 10 µM equal to 92.2

The compound listed as Cc1c(C(=O)N(C(C)C)C2CC2)nnn1-c1ccc2ncccc2c1 shows viability at 28.5 h, 10 µM equal to 92.5

The compound listed as CC(Oc1ccc(Cl)cc1Cl)C(=O)O/N=C(\N)c1ccccn1 (stereo not shown) shows viability at 28.5 h, 10 µM equal to 100

The compound listed as O=S(=O)(NC1CCCCC1Sc1nnc(Nc2ccccc2)s1)c1ccccc1 (stereo not shown) shows viability at 28.5 h, 10 µM equal to 96.7

The compound listed as CCCOc1ccc(S(=O)(=O)NCc2ccc3c(c2)OCO3)c2ccccc12 shows viability at 28.5 h, 10 µM equal to 94.3

The compound listed as CC1(C)CC(=O)C=C(SCC(=O)C(C)(C)C)S1 shows viability at 28.5 h, 10 µM equal to 106

The compound listed as CCC(c1cccc(OC)c1)N(C)C(=O)CC1CCN(c2nc(C)cc(C)n2)CC1 (stereo not shown) shows viability at 28.5 h, 10 µM equal to 99.7

The compound listed as CCCNS(=O)(=O)c1ccc(OCC(=O)N2CCN(C)CC2)c(C)c1 shows viability at 28.5 h, 10 µM equal to 102

The compound listed as O=C(Nc1ccc2oc(-c3cccnc3)nc2c1)c1cccc(-c2cc3ccccc3oc2=O)c1 shows viability at 28.5 h, 10 µM equal to 89.3

The compound listed as CCCC/C=C/c1nccnc1NCCCO shows viability at 28.5 h, 10 µM equal to 102

The compound listed as CCOC(=O)C(CNC(=O)CNC(=O)c1ccoc1)Cc1ccccc1 (stereo not shown) shows viability at 28.5 h, 10 µM equal to 92.4

The compound listed as OCCn1ncc2c(NCc3cccnc3-n3cccn3)ncnc21 shows viability at 28.5 h, 10 µM equal to 90.6

The compound listed as COc1ccc2[nH]c3c(c2c1)CCNC31CCN(CCSc2ccccc2)C1 (stereo not shown) [CBK084541T] shows viability at 28.5 h, 10 µM equal to 92

The compound listed as Cc1ccc(NC(=O)c2c[nH]c(=O)[nH]c2=O)cc1 shows viability at 28.5 h, 10 µM equal to 95.7

The compound listed as COc1ccc(C(=O)Nc2cccc(-c3nc4ccccc4[nH]3)c2)c(OC)c1 shows viability at 28.5 h, 10 µM equal to 95.4

The compound listed as CCc1ccc2c(c1)C(CCNC(=O)c1cscc1C(F)(F)F)C(=O)N2 (stereo not shown) shows viability at 28.5 h, 10 µM equal to 82.5

The compound listed as Cc1nc(C)c(C(=O)N2CC(C(=O)N3CCN(c4ccccc4)CC3)C2)s1 shows viability at 28.5 h, 10 µM equal to 93.4

These data points were gathered from paper PMC12040169.
